# Test system: HCT-116 colon
# EXPERIMENT: NCI-60 one-dose screen, 48 h (100 = growth as untreated, 0 = no growth, -100 = all killed)
# DETAILS: 10 µM
This is part of a sample that, as a whole, favours compounds with a hit. Of some 83,000 tested, about 20% had one in any assay. The source made the active and inactive calls. How the source made its calls: active means growth percent below 10; inactive means the rest.
MEASUREMENT NAME: growth

compound=C=C1C(=O)O[C@@H]2C[C@@H](C)[C@@H]3C=CC(=O)[C@@]3(C)[C@@H](O)[C@H]12 target_or_system="HCT-116 colon" measurement_name=growth recorded_value="-93.5% (active)"
compound="CC1CCC2(OC1)OC1C(O)C3C4CCC5CC(OC6OC(CO)C(OC7OC(CO)C(O)C(OC8OCC(O)C(O)C8O)C7OC7OC(CO)C(O)C(OC8OC(CO)C(O)C(O)C8O)C7O)C(O)C6O)C(O)CC5(C)C4CCC3(C)C1C2C (stereo unspecified)" target_or_system="HCT-116 colon" measurement_name=growth recorded_value="-72% (active)"
compound=NC(=O)c1cc([N+](=O)[O-])c(Cl)c([N+](=O)[O-])c1 target_or_system="HCT-116 colon" measurement_name=growth recorded_value="-79.3% (active)"
compound=O=[N+]([O-])c1ccc(Br)c([N+](=O)[O-])c1 target_or_system="HCT-116 colon" measurement_name=growth recorded_value="32.3% (inactive)"
compound=[Cl][Sn]([c]1ccccc1)([c]1ccccc1)[c]1ccccc1 target_or_system="HCT-116 colon" measurement_name=growth recorded_value="-97.3% (active)"
compound="COc1ccccc1[As]=[As]c1ccccc1OC (stereo unspecified)" target_or_system="HCT-116 colon" measurement_name=growth recorded_value="-71.3% (active)"

----------
# System: ACHN renal
# EXPERIMENT: NCI-60 one-dose screen, 48 h (100 = growth as untreated, 0 = no growth, -100 = all killed)
# DETAILS: 10 µM
Compounds without any hit were thinned out: in the full panel of roughly 83,000, 20% have a hit.
Please enter rule met where growth is greater than or equal to 10%, and rule not met where it is lower.

molecule="COC(=O)C1C(O)C(C)C(O)C(C)/C=C\\C=C(C)C(=O)Nc2c(C)c(OC(C)=O)c3c(c2O)C(=O)C(C)=C2OCOC(=C23)C(C)=CC(C)(O)C(O)C(C)C1O (stereo unspecified)" qualitative_label="rule met"
molecule="COC1CC2C=C(C)/C=C/C=C/C(=O)NC(c3ccccc3)C/C=C/CCC(O)CC(=O)C2=C1O (stereo unspecified)" qualitative_label="rule not met"
molecule="COC12C(COC(N)=O)C3=C(C(=O)C(C)=C(N)C3=O)N1CC1C2N1C (stereo unspecified)" qualitative_label="rule met"
molecule="COc1ccccc1[As]=[As]c1ccccc1OC (stereo unspecified)" qualitative_label="rule not met"
molecule=O=S(=O)(F)c1ccc(Cl)cc1 qualitative_label="rule met"
molecule=COc1cc(/C=C/[N+](=O)[O-])cc(OC)c1OC qualitative_label="rule not met"

----------
# System: ACHN renal
# EXPERIMENT: NCI-60 one-dose screen, 48 h
# DETAILS: 10 µM
The panel holds about 83,000 compounds, 20% with a hit somewhere; the sample as a whole holds those more often. Calls of active or inactive are those of the source. How the source made its calls: active means growth percent below 10; inactive means the rest.
Outcomes: active, inactive

compound=[O-][n+]1ccccc1S qualitative_label=inactive
compound="CC[C@@H](C)[C@@H]1NC(=O)C(NC(=O)C(CC(C)C)N(C)C(=O)C2CCCN2C(=O)C(C)O)C(C)OC(=O)C(Cc2ccc(OC)cc2)N(C)C(=O)C2CCCN2C(=O)C(CC(C)C)NC(=O)C(C)C(=O)C(C(C)C)OC(=O)C[C@H]1O (stereo not given in full)" qualitative_label=active
compound="CCOP(=O)(OCC)C(O)c1ccccc1Cl (stereo not given)" qualitative_label=inactive
compound=O=C(CBr)Nc1ccc(Cl)cc1 qualitative_label=inactive
compound=CC/C(=C/c1ccc(OC)cc1)[N+](=O)[O-] qualitative_label=active

----------
# Test system: CCRF-CEM leukemia
# EXPERIMENT: NCI-60 one-dose screen, 48 h (100 = growth as untreated, 0 = no growth, -100 = all killed)
# DETAILS: 10 µM
# Protocol: Growth inhibition of the CCRF-CEM human tumor cell line is measured as a screen for anti-cancer activity. Cells are grown in 96 well plates and exposed to the test compound for 48 hours. Compounds are tested at a single concentration, which is 10^-5 M for most compounds. The reported endpoint is percent growth (GI% or GIPRCNT), where numbers from 0 - 100% represent growth inhibition, and numbers from -100% - 0 represent cell death. For example, a value of 40 represents 60% growth inhibition. […]
About 83,000 compounds went through this panel and 20% of them were active in at least one assay; those are over-represented in the sample as a whole.
MEASUREMENT NAME: growth (%)

compound=CC(=O)[O][Hg][c]1c(C)c(C)cc(C)c1C unit_of_measure=% recorded_value=3.85
compound="CC[C@@]1(O)C[C@H](OC2CC(N(C)C)C(O)C(C)O2)c2c(cc3c(c2O)C(=O)c2c(O)ccc(O)c2C3=O)[C@H]1C(=O)OC (some centres undefined)" unit_of_measure=% recorded_value=-30.1
compound="CCOP(=O)(OCC)C(O)c1ccccc1Cl (centres undefined)" unit_of_measure=% recorded_value=93.9
compound=N#CCc1ccccc1 unit_of_measure=% recorded_value=97.3

----------
# Tested on: MOLT-4 leukemia
# EXPERIMENT: NCI-60 one-dose screen, 48 h (100 = growth as untreated, 0 = no growth, -100 = all killed)
# DETAILS: 10 µM
The panel holds about 83,000 compounds, 20% with a hit somewhere; the sample as a whole holds those more often.
MEASUREMENT NAME: growth (%)

compound=COc1ccc2c(ccc3oc([N+](=O)[O-])cc32)c1 recorded_value=-19
compound="CC[C@@H](C)[C@@H]1NC(=O)C(NC(=O)C(CC(C)C)N(C)C(=O)C2CCCN2C(=O)C(C)O)C(C)OC(=O)C(Cc2ccc(OC)cc2)N(C)C(=O)C2CCCN2C(=O)C(CC(C)C)NC(=O)C(C)C(=O)C(C(C)C)OC(=O)C[C@H]1O (stereo partly drawn)" recorded_value=-15.8
compound=O=[N+]([O-])/C=C\c1ccc2c(c1)OCO2 recorded_value=75.9

----------
# Tested on: MCF7 breast
# EXPERIMENT: NCI-60 one-dose screen, 48 h (100 = growth as untreated, 0 = no growth, -100 = all killed)
# DETAILS: 10 µM unless noted
Compounds without any hit were thinned out: in the full panel of roughly 83,000, 20% have a hit.
MEASUREMENT NAME: growth (%)

compound="COC12C(COC(N)=O)C3=C(C(=O)C(C)=C(N)C3=O)N1CC1C2N1C (centres undefined)" recorded_value=27.5
compound="CC[C@@H](C)[C@@H]1NC(=O)C(NC(=O)C(CC(C)C)N(C)C(=O)C2CCCN2C(=O)C(C)O)C(C)OC(=O)C(Cc2ccc(OC)cc2)N(C)C(=O)C2CCCN2C(=O)C(CC(C)C)NC(=O)C(C)C(=O)C(C(C)C)OC(=O)C[C@H]1O (some centres undefined)" recorded_value=-27.7
compound=CN(C)CC1(N)C(=O)NC(=O)NC1=O recorded_value=90.9
compound="O=C(O)c1cc(Cc2ccc(O)c(C(=O)O)c2)ccc1O (tested in a mixture with another compound)" recorded_value=46.4
compound=COc1ccccc1/C=C/[N+](=O)[O-] recorded_value=28.8
compound=CC/C(=C/c1ccc(OC)cc1OC)[N+](=O)[O-] recorded_value=0.465
compound=CC(=O)Nc1c2sscc-2n(C)c1=O recorded_value=-60.9
compound="CC(Cc1ccc2c(c1)OCO2)NN (centres undefined)" recorded_value=91.2
compound="COC(C(=O)C(O)C(C)O)C1Cc2cc3cc(OC4CC(OC(C)=O)C(OC5CC(O)C(OC)C(C)O5)C(C)O4)cc(O)c3c(O)c2C(=O)C1OC1CC(OC2CC(OC3CC(C)(O)C(OC(=O)C(C)C)C(C)O3)C(O)C(C)O2)C(O)C(C)O1 (centres undefined)" recorded_value=1.47
compound=Cc1cc(C)c(C[N+](C)(C)C)c(C)c1C recorded_value=-10.7
compound=[Cl][Sn]([c]1ccccc1)([c]1ccccc1)[c]1ccccc1 recorded_value=-81.1
compound=COS(=O)(=O)c1ccccc1 recorded_value=99.5
compound=CCCCCCCC[N+]12CN3CN(CN(C3)C1)C2 recorded_value=91.4
compound=ClCc1ccc2ccccc2n1 recorded_value=103

----------
# System: SF-268 CNS
# EXPERIMENT: NCI-60 one-dose screen, 48 h (100 = growth as untreated, 0 = no growth, -100 = all killed)
# DETAILS: 10 µM
This is part of a sample that, as a whole, favours compounds with a hit. Of some 83,000 tested, about 20% had one in any assay.
Some molecules, each annotated with its measured growth.
MEASUREMENT NAME: growth (%)

molecule=O=[N+]([O-])c1ccc(Br)c([N+](=O)[O-])c1 recorded_value=96.8
molecule=CN(C)CC1(N)C(=O)NC(=O)NC1=O recorded_value=103
molecule=O=C1C=Cc2ccccc2C1=O recorded_value=87.8
molecule="COc1cc2c(cc1OC)C13CCN4CC5=CCOC6CC(=O)N2C1C6C5CC43 (stereo not drawn)" recorded_value=103
molecule=O=[N+]([O-])c1cc[n+]([O-])c2ccccc12 recorded_value=3.65
molecule=Cc1ccc(NC(=O)CBr)cc1 recorded_value=104
molecule="C#CC1(O)CCC(C(C)(C)C)CC1 (stereo not drawn)" recorded_value=103
molecule=CC/C(=C/c1ccc(OC)cc1)[N+](=O)[O-] recorded_value=38
